Values compiled from ChEMBL document CHEMBL4033731.

Below is a list of entries, each paired with its recorded half-life at 0.1 µM value.
- protocol-text: Half life in human hepatic microsomes at 0.1 uM by HPLC-MS/MS method
- Assay type: ADME, Microsome
- conditions-used: liver microsomes
Just the number please, in min, no unit attached.

Use these answered entries as a reference point.
INSERT INTO measurements (compound, reported_value) VALUES
  ('COc1ccccc1C(c1nnnn1C(C)(C)C)N1CCc2ccccc2C1 (stereo unspecified)', 8),
  ('CC(C)(C)n1nnnc1C(c1cc(F)ccc1O)N1CCc2ccccc2C1 (stereo unspecified)', 5),
  ('CC(C)(C)n1nnnc1C(c1ccccc1)N1CCc2ccccc2C1 (stereo unspecified)', 6),
  ('CC(C)(C)n1nnnc1C(c1ccccc1F)N1CCc2ccccc2C1 (stereo unspecified)', 3),
  ('CC(C)(C)n1nnnc1C(c1ccccc1O)N1CCc2ccccc2C1 (stereo unspecified)', 7);

// next item, half-life at 0.1 µM requested
Lookup: Any idea what half-life at 0.1 µM was measured for COc1ccccc1C(c1nnnn1C(C)(C)C)N1CCC2CCCCC2C1 (stereo unspecified) ?
Found: 3

###

Reported values of Activity for individual entries
- system-name: Prostacyclin receptor (Homo sapiens) (UniProt P43119)
- Sequence (P43119 whole entry): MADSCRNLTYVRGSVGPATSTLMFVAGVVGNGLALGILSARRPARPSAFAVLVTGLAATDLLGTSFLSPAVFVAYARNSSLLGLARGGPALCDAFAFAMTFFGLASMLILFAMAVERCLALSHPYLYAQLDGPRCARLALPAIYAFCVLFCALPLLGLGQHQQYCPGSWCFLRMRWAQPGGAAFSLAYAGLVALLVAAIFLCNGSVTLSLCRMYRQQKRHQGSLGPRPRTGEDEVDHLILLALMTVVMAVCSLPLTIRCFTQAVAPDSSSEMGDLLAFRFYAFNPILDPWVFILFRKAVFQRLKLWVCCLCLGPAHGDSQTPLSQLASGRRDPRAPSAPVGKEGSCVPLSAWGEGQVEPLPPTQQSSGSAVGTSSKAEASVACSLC
- protocol-text: Positive allosteric modulator activity at human prostacyclin receptor expressed in CHO-K1 cells assessed as compound concentration needed to shift agonist concentration response curve leftward by 2-fold by measuring CAMP accumulation
- Type: cell-based

Guide cases for Activity, answers given:
INSERT INTO assay_data (compound, reported_value) VALUES
  ('CC(C)(C)n1nnnc1C(c1ccccc1F)N1CCc2ccccc2C1 (centres undefined)', '4.7 µM'),
  ('CC(C)(C)n1nnnc1C(c1cccc(F)c1O)N1CCc2ccccc2C1 (centres undefined)', '8.2 µM'),
  ('COc1ccccc1C(c1nnnn1C(C)(C)C)N1CCc2ccccc2C1 (centres undefined)', '4.3 µM');

Lookup: Activity for CC(C)(C)n1nnnc1C(c1cc(F)ccc1O)N1CCc2ccccc2C1 (centres undefined) ?
Found: 12 µM

Lookup: Entry COc1ccccc1C(c1nnnn1C(C)(C)C)N1CCC2CCCCC2C1 (centres undefined) has what Activity?
Found: 6.2 µM

Lookup: Sample COc1ccccc1C(c1nnnn1C(C)(C)C)N1CCc2ccc(F)cc2C1 (centres undefined) — what was its Activity?
Found: 15.2 µM

Lookup: Given the compound CC(C)(C)n1nnnc1C(c1ccccc1O)N1CCc2ccccc2C1 (centres undefined) , what is its reported Activity?
Found: 1.4 µM

Lookup: Returns the measured Activity for the input compound. Input: CC(C)(C)n1nnnc1C(c1ccccc1)N1CCc2ccccc2C1 (centres undefined)
Found: 6.9 µM

###

- protocol-text: Half life in human hepatic microsomes at 0.1 uM by HPLC-MS/MS method
- Type: ADME, Microsome
- conditions-used: liver microsomes
outcome-measure: half-life at 0.1 µM

INSERT INTO results (compound, reported_value) VALUES
  ('CC(C)(C)n1nnnc1C(c1cccc(F)c1O)N1CCc2ccccc2C1 (stereo not drawn)', '21 min');

Lookup: half-life at 0.1 µM for CC(C)(C)NC(=O)C(c1ccccc1)N1CCc2ccccc2C1 (stereo not drawn) ?
Found: 6 min

Lookup: Using the record for COc1ccccc1C(c1nnnn1C(C)(C)C)N1CCc2ccc(F)cc2C1 (stereo not drawn) , report its half-life at 0.1 µM.
Found: 6 min

###

- protocol-text: Drug metabolism in human hepatic microsomes assessed as peak area for parent compound at 10 uM incubated for 90 mins at 37 degC by HPLC-MS/MS method relative to control
- Type: ADME, Microsome
- conditions-used: liver microsomes, read-out: Stability
outcome-measure: remaining at 1.5 h, 10 µM (%)
Give the value in % but do not write % after it.

Lookup: remaining at 1.5 h, 10 µM lookup needed for CC(C)(C)n1nnnc1C(c1cccc(F)c1O)N1CCc2ccccc2C1 (stereo unspecified) , thanks.
Found: 1.04
